// merged dataset of IC50 values, system = Histone deacetylase 4 (Homo sapiens, UniProt P56524), multiple refs

Worked cases, answers included:
Nc1nc2cc(-c3cn(Cc4ccc(-c5nnc(C(F)F)o5)cn4)nn3)ccc2s1; > 30000 nM
Nc1ccc(-c2cn(Cc3ccc(-c4nnc(C(F)F)o4)cn3)nn2)cn1; > 30000 nM
Fc1cccc(F)c1C1(Nc2ncc(-c3nnc(C(F)F)o3)cn2)CC1; > 30000 nM
Cc1cc(F)ccc1-c1nc2c(s1)CC(C(=O)NO)(c1cccc(F)c1C)C2 (single isomer, unassigned); 780 nM
O=C(/C=C/c1ccc(CN(CCF)CC23CC4CC(CC(C4)C2)C3)cc1)NO; > 10000 nM

Let me check: CN(C)S(=O)(=O)c1cccc(-c2nnn(Cc3ccc(C(=O)NO)cc3)n2)c1 , system Histone deacetylase 4 (Homo sapiens, UniProt P56524), measured IC50 is 2490 nM

Per the reported Histone deacetylase 4 (Homo sapiens, UniProt P56524) data, O=C(NO)c1cc(-c2ccccc2Cl)cn1-c1ccccc1 has IC50 of 710 nM

The value of IC50 recorded for COc1ccc(/C=C/C(=O)NO)cc1 when tested on Histone deacetylase 4 (Homo sapiens, UniProt P56524) reads > 70000 nM
